Reported Diameter of growth inhibition zone, ST values for the following compounds.
# Test system: Salmonella typhimurium (NCIM-2501)
# EXPERIMENT_NOTES: Agar disk diffusion, inhibition zone
# Assay type: cell-based
# EXPERIMENTAL_SETUP: 100 µg/8 mm disc, triplicate, mean ± SD
Please give a number only; it is taken to be in mm.

Examples with their reported Diameter of growth inhibition zone, ST follow.
> print(dat)
                                   compound                           endpoint.name  quantitative.readout
1  Cc1ccc(S(=O)(=O)N2C(=O)CSC2c2ccccc2)cc1 (stereo not drawn) [5a]  Diameter of growth inhibition zone, ST                    07
2  Cc1ccc(S(=O)(=O)N2C(=O)CSC2c2ccc(C(C)C)cc2)cc1 (stereo not drawn) [5n]  Diameter of growth inhibition zone, ST                    07
3  Cc1ccc(S(=O)(=O)N2C(=O)CSC2c2ccccc2Br)cc1 (stereo not drawn) [5b]  Diameter of growth inhibition zone, ST                    12
4  Cc1ccc(S(=O)(=O)N2C(=O)CSC2c2cccc(O)c2)cc1 (stereo not drawn) [5l]  Diameter of growth inhibition zone, ST                    10
5  Cc1ccc(S(=O)(=O)N2C(=O)CSC2c2ccc([N+](=O)[O-])cc2)cc1 (stereo not drawn) [5q]  Diameter of growth inhibition zone, ST                    10

Short answer for Cc1ccc(S(=O)(=O)N2C(=O)CSC2c2cccc(Cl)c2)cc1 (stereo not drawn) [5f] : Diameter of growth inhibition zone, ST was 14

Entry Cc1ccc(S(=O)(=O)N2C(=O)CSC2c2ccc(O)cc2)cc1 (stereo not drawn) [5m] , Diameter of growth inhibition zone, ST reported as 12

Diameter of growth inhibition zone, ST measured on Cc1ccc(S(=O)(=O)N2C(=O)CSC2c2cccc(Br)c2)cc1 (stereo not drawn) [5c] = 12

Entry Cc1ccc(S(=O)(=O)N2C(=O)CSC2c2ccc(Br)cc2)cc1 (stereo not drawn) [5d] — recorded Diameter of growth inhibition zone, ST = 14

So for Cc1ccc(S(=O)(=O)N2C(=O)CSC2c2ccccc2F)cc1 (stereo not drawn) [5h] , the logged Diameter of growth inhibition zone, ST turned out to be 14

Value of Diameter of growth inhibition zone, ST reported for the compound Cc1ccc(S(=O)(=O)N2C(=O)CSC2c2ccccc2C)cc1 (stereo not drawn) [5r] is 08

Lab note: Cc1ccc(S(=O)(=O)N2C(=O)CSC2c2cccc(C)c2)cc1 (stereo not drawn) [5s] gave Diameter of growth inhibition zone, ST of 10

Briefly, Diameter of growth inhibition zone, ST measured for Cc1ccc(S(=O)(=O)N2C(=O)CSC2c2ccccc2Cl)cc1 (stereo not drawn) [5e] : 10

Sample Cc1ccc(C2SCC(=O)N2S(=O)(=O)c2ccc(C)cc2)cc1 (stereo not drawn) [5t] ; Diameter of growth inhibition zone, ST observed: 07

Briefly, Diameter of growth inhibition zone, ST measured for Cc1ccc(S(=O)(=O)N2C(=O)CSC2c2ccccc2O)cc1 (stereo not drawn) [5k] : 10

Recorded Diameter of growth inhibition zone, ST (compound Cc1ccc(S(=O)(=O)N2C(=O)CSC2c2ccc(Cl)cc2)cc1 (stereo not drawn) [5g] ): 12

// Diameter of growth inhibition zone, ST value for Cc1ccc(S(=O)(=O)N2C(=O)CSC2c2cccc([N+](=O)[O-])c2)cc1 (stereo not drawn) [5p] : 12

Diameter of growth inhibition zone, ST reported for this compound CC1(C)S[C@@H]2[C@H](NC(=O)[C@H](N)c3ccccc3)C(=O)N2[C@H]1C(=O)O [AA, Ampicillin, reference compound] : 18

Please fill in: Diameter of growth inhibition zone, ST reported for Cc1ccc(S(=O)(=O)N2C(=O)CSC2c2ccc(F)cc2)cc1 (stereo not drawn) [5j] = 18

The recorded Diameter of growth inhibition zone, ST for entry Cc1ccc(S(=O)(=O)N2C(=O)CSC2c2cccc(F)c2)cc1 (stereo not drawn) [5i] equals 10

Lab note: measured Diameter of growth inhibition zone, ST of Cc1ccc(S(=O)(=O)N2C(=O)CSC2c2ccccc2[N+](=O)[O-])cc1 (stereo not drawn) [5o] was 10

----------
# Test system: Punta Toro virus
# EXPERIMENT_NOTES: CPE reduction assay in Vero cells
# Type: cell-based
# EXPERIMENTAL_SETUP: read-out: Antiviral EC50, Punta Toro virus
ENDPOINT_NAME: EC50

Take a look at these entries with their results.
> print(dat)
                                   compound  endpoint.name    result
1  Cc1ccc(S(=O)(=O)N2C(=O)CSC2c2ccccc2)cc1 (centres unmarked)           EC50  > 100 µM
2  Cc1ccc(S(=O)(=O)N2C(=O)CSC2c2cccc([N+](=O)[O-])c2)cc1 (centres unmarked)           EC50  > 100 µM
3  COc1c(C)c2c(c(O)c1C/C=C(\C)CCC(=O)O)C(=O)OC2 [Mycophenolic acid, mycophenolic acid, reference compound]           EC50    1.4 µM

Summary for this compound, Cc1ccc(S(=O)(=O)N2C(=O)CSC2c2ccccc2[N+](=O)[O-])cc1 (centres unmarked) : EC50 is > 100 µM

So, Cc1ccc(S(=O)(=O)N2C(=O)CSC2c2ccc(O)cc2)cc1 (centres unmarked) ? Its EC50 was > 100 µM

----------
# Lookup of reported Minimum cytotoxic conc. keyed by entry
# System: MT4 cells
# EXPERIMENTAL_SETUP: MT4 cell cultures; colorimetric MTT cell viability assay

Consider the worked cases shown below.
> print(dat)
                                   molecule            endpoint.name   result
1  Cc1ccc(S(=O)(=O)N2C(=O)CSC2c2ccccc2F)cc1 (stereo not drawn)  Minimum cytotoxic conc.   111 µM
2  Cc1ccc(S(=O)(=O)N2C(=O)CSC2c2ccc([N+](=O)[O-])cc2)cc1 (stereo not drawn)  Minimum cytotoxic conc.  >125 µM
3  Cc1ccc(S(=O)(=O)N2C(=O)CSC2c2cccc([N+](=O)[O-])c2)cc1 (stereo not drawn)  Minimum cytotoxic conc.  >125 µM
4  Cc1ccc(S(=O)(=O)N2C(=O)CSC2c2ccc(Cl)cc2)cc1 (stereo not drawn)  Minimum cytotoxic conc.  >125 µM
5  Cc1ccc(S(=O)(=O)N2C(=O)CSC2c2ccccc2Cl)cc1 (stereo not drawn)  Minimum cytotoxic conc.  >125 µM

Now for a further molecule.
Reported Minimum cytotoxic conc. of Cc1cn([C@H]2C[C@H](N=[N+]=[N-])[C@@H](CO)O2)c(=O)[nH]c1=O [Azidothymidine, reference compound] : >2 µM

----------
# SYSTEM: S. aureus DNA gyrase (Staphylococcus aureus, UniProt P0A0K8+P20831)
# Sequence (P20831 whole entry): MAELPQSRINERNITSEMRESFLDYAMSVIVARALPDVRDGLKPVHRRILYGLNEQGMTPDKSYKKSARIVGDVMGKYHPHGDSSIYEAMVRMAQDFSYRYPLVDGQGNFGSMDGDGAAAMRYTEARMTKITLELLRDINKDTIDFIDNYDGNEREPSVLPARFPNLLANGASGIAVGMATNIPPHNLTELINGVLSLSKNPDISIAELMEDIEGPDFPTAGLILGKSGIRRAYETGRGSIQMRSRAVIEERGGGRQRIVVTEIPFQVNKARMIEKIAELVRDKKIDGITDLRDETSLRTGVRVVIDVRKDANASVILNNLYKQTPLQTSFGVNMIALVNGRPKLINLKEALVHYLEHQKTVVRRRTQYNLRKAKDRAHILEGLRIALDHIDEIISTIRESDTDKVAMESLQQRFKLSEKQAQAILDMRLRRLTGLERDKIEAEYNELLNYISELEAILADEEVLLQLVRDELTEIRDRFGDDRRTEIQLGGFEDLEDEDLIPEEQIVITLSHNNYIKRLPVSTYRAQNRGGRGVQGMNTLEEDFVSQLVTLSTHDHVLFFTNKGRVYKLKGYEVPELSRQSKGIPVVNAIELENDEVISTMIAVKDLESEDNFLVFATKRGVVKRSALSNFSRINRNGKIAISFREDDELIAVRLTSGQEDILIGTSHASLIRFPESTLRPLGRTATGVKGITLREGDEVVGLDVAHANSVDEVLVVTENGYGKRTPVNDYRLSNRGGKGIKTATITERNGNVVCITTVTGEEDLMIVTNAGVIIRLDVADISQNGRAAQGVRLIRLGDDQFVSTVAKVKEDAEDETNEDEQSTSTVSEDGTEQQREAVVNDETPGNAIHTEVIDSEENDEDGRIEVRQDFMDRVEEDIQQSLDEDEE
# Sequence (P0A0K8 whole entry): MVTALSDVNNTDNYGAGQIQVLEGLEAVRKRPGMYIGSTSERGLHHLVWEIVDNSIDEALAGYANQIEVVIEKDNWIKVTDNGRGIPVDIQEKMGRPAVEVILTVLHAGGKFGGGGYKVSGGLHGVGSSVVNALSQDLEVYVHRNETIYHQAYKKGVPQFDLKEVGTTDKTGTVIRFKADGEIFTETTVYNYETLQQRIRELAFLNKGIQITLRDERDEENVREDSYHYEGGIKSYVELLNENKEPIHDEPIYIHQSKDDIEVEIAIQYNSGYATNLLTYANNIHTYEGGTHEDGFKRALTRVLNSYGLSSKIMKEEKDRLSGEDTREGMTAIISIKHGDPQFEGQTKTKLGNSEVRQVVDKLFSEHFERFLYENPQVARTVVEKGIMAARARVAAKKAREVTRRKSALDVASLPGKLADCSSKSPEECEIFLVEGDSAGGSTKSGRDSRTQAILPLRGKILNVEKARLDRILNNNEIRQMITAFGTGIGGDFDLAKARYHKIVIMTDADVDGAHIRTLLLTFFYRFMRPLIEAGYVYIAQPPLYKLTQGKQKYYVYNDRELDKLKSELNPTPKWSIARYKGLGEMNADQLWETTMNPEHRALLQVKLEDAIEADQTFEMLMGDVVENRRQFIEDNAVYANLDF
# EXPERIMENT_NOTES: DNA Gyrase inhibition assay
ENDPOINT_NAME: IC50 (µM)
Give your result in µM as a bare value.

// sample Cc1ccc(S(=O)(=O)N2C(=O)CSC2c2ccc(F)cc2)cc1 (stereo not shown) , its IC50 was 4.26

----------
# Test system: Escherichia coli (ATCC 8739)
# EXPERIMENT_NOTES: Agar disk diffusion, inhibition zone
# Assay type: cell-based
# EXPERIMENTAL_SETUP: 100 µg/8 mm disc, triplicate, mean ± SD
Given measured Diameter of growth inhibition zone, EC, output Condition met if it is greater than or equal to 20 mm and Condition not met if not.

> print(dat)
                                   molecule        label.class
1  Cc1ccc(S(=O)(=O)N2C(=O)CSC2c2cccc([N+](=O)[O-])c2)cc1 (stereo not drawn)  Condition not met
2  Cc1ccc(S(=O)(=O)N2C(=O)CSC2c2ccccc2[N+](=O)[O-])cc1 (stereo not drawn)  Condition not met
3  Cc1ccc(S(=O)(=O)N2C(=O)CSC2c2cccc(F)c2)cc1 (stereo not drawn)      Condition met
4  Cc1ccc(S(=O)(=O)N2C(=O)CSC2c2ccccc2C)cc1 (stereo not drawn)  Condition not met

Q. Hello, I need to know if Cc1ccc(S(=O)(=O)N2C(=O)CSC2c2ccccc2Cl)cc1 (stereo not drawn) has measured Diameter of growth inhibition zone, EC not below 20 mm. Thanks!
A. Condition not met

Q. Threshold query (Diameter of growth inhibition zone, EC >= 20 mm) on Cc1ccc(S(=O)(=O)N2C(=O)CSC2c2ccc(Cl)cc2)cc1 (stereo not drawn)
A. Condition met

----------
# pEC50 per entry
# Test system: Vaccinia virus
# EXPERIMENT_NOTES: microbe, parasite or virus in culture
# Type: cell-based
# EXPERIMENTAL_SETUP: Orthopoxvirus vaccinia, HEL, read-out: Antiviral EC50, Vaccinia virus
pEC50: −log10 of the molar value.

Here are 4 compounds together with their reported answers.
> print(dat)
                                   compound  result
1  Nc1nc(O)c2ncn(COC(CO)CO)c2n1 [Ganciclovir, reference compound]  < 4.00
2  Nc1nc2c(ncn2COCCO)c(=O)[nH]1 [Acyclovir, reference compound]  < 3.60
3  Cc1ccc(S(=O)(=O)N2C(=O)CSC2c2ccc(C(C)C)cc2)cc1 (centres unmarked)  < 4.00
4  Cc1ccc(S(=O)(=O)N2C(=O)CSC2c2ccccc2F)cc1 (centres unmarked)  < 4.00

Next compound, please.
For Cc1ccc(S(=O)(=O)N2C(=O)CSC2c2cccc([N+](=O)[O-])c2)cc1 (centres unmarked) the compound record lists pEC50 as < 4.00
